Test system: ISC-enriched organoids
Assay: Primary screen, 384-well 2.5-D organoid differentiation (ENR+CD, 6 days, Target Selective Inhibitor Library, vs whole-plate median): ATP (CellTiter-Glo 3D, CTG)
Details: Dose 0.08 uM; primary screen, FC vs plate median
Property Measured: Dose.FC.CTG (log 2 fold change)

Cc1ccc(NCCCc2ccccc2)c(N)c1; 0.193
O=C(NCCN1CCOCC1)c1ccc(Cl)cc1 [Moclobemide (Ro 111163)]; 0.146
Cc1cccc(CC(=O)N2CCc3c2ccc(-c2cn(C)c4ncnc(N)c24)c3F)n1; 0.068
CCC(CC)(NC(=O)C(C)C)C(=O)N[C@@H](CCCN=C(N)N)C(=O)NC1(C(=O)NC(c2ccc(F)cc2)c2ccc(F)cc2)CCCC1; −0.205
Nc1ncnc2c1c(-c1cccc(OCc3ccccc3)c1)cn2C1CC(CN2CCCC2)C1 (stereo not drawn); 0.679
O=C(O)CNC(=O)c1c(O)c2ccccc2n(Cc2ccccc2)c1=O; 0.149
CC1=C(C(=O)Nc2cc3cn[nH]c3cc2F)C(c2ccc(C(F)(F)F)cc2)CC(=O)N1 (stereo not drawn) [GSK429286A]; 0.527
O=C(c1ccc(Nc2nccc(-c3cc4ccccc4s3)n2)cc1)N1CCC(N2CCCC2)CC1; 0.058
FC(F)(F)c1ccc(/C=C/c2nc(COc3ccc(CCCCn4ccnn4)cc3)co2)cc1; −0.524
CCn1c(-c2nonc2N)nc2c(C#CC(C)(C)O)ncc(OC[C@H]3CCCNC3)c21; 0.129
CC[C@@H]1/C=C/C=C/C[C@H](C)[C@H](O)[C@](C)(O)C(=O)[C@H](C)[C@@H](O)[C@H](C)C(=O)[C@H](C)[C@@H](O)[C@H](C)/C=C/C(=O)O[C@H]2[C@@H](C)[C@@H](CC1)O[C@@]1(CC[C@@H](C)[C@@H](C[C@H](C)O)O1)[C@@H]2C; −0.662
CC(C)c1onc(-c2c(Cl)cccc2Cl)c1COc1ccc(/C=C/c2cccc(C(=O)O)c2)c(Cl)c1; −0.134
CCc1cncnc1N1CCN(Cc2nc3ccc(C(F)(F)F)cc3[nH]2)CC1; 0.261
NCC(=O)Nc1ccc(-n2nc(C(F)(F)F)cc2-c2ccc3c(ccc4ccccc43)c2)cc1; 0.205
CCCCc1nc(Cl)c(CO)n1Cc1ccc(-c2ccccc2-c2nnn[n-]2)cc1.[K+]; −0.152

The reported numbers originate from patent US20230398130A1.
